- Test system: S. aureus ATCC13709
- test-details: In vitro antibacterial activity (MIC assay), broth microdilution
- Type: cell-based
- condition-label: Staphylococcus aureus, ATCC13709; read-out: S. aureus ATCC13709 MIC
Strictly below 1 mg/L in MIC: yes (1). Otherwise: no (0).

Illustrative cases are given below, each with its answer.
COc1ccc2nccc(-n3cc4c(n3)CCC(NCc3ccc(N(C)C)cc3)C4)c2n1 (stereo not shown) [Example 39]
yes (1)
COc1ccc2nccc(-n3cc4c(n3)CCC(NC(=O)C3(c5ccc(Cl)cc5)CCCC3)C4)c2c1 (stereo not shown) [Example 80]
no (0)
COc1ccc2nccc(-n3cc4c(n3)CCC(NC(=O)c3cc5c(cc3Cl)SCC(=O)N5)C4)c2n1 (stereo not shown) [Example 6]
yes (1)
COc1ccc2nccc(-n3cc4c(n3)CCC(NC(=O)/C=C/c3ccc(F)cc3)C4)c2n1 (stereo not shown) [Example 13]
yes (1)
COc1ccc2nccc(-n3cc4c(n3)CCC(NC(=O)c3cc5c(F)cc(F)cc5[nH]3)C4)c2c1 (stereo not shown) [Example 22]
yes (1)

Does the reported MIC of the following molecule sit strictly below 1 mg/L? COc1ccc2nccc(-n3cc4c(n3)CCC(NCCOc3ccccc3)C4)c2n1 (stereo not shown) [Example 65]
yes (1)

Does the reported MIC of the following molecule sit strictly below 1 mg/L? COc1ccc2nccc(-n3cc4c(n3)CCC(NCC(=O)Nc3cc(F)cc(F)c3)C4)c2c1 (stereo not shown) [Example 61]
yes (1)

Does the reported MIC of the following molecule sit strictly below 1 mg/L? COc1ccc2nccc(-n3cc4c(n3)CCC(NC(=O)c3ccc(C(C)=O)s3)C4)c2c1 (stereo not shown) [Example 73]
no (0)

Does the reported MIC of the following molecule sit strictly below 1 mg/L? COc1ccc2nccc(-n3cc4c(n3)CCC(NC/C=C/c3ccccc3)C4)c2n1 (stereo not shown) [Example 46]
yes (1)

====

- Tested on: CipR MRSA OC4159
- test-details: Resistant strains assay (broth microdilution MIC)
- Format: cell-based
- condition-label: Staphylococcus aureus, read-out: MIC, Column F
log10 of MIC values for the compounds below.
Base-10 log of MIC, unit µg/mL.

COc1ccc2nccc(-n3cc4c(n3)CCC(NCc3ccc5c(c3)NC(=O)CS5)C4)c2n1 (stereo not drawn)
-0.60
COc1ccc2nccc(-n3cc4c(n3)CCC(NCc3ccc5c(c3)OCCO5)C4)c2c1 (stereo not drawn)
1.20
C[C@@H]1CN(c2c(F)c(N)c3c(=O)c(C(=O)O)cn(C4CC4)c3c2F)C[C@H](C)N1 [Sparfloxacin, reference compound]
1.20

Indicate the recorded log10 of MIC value for this compound: COc1ccc2nccc(-n3cc4c(n3)CCC(NC(=O)c3ccc5c(c3)NC(=O)CS5)C4)c2c1 (stereo not drawn)
-1.51

Indicate the recorded log10 of MIC value for this compound: O=C1CSc2ccc(C(=O)NC3CCc4nn(-c5cccc6cccnc56)cc4C3)cc2N1 (stereo not drawn)
0.60

====

- target-system: E. coli DNA gyrase (Escherichia coli, UniProt P0AES4+P0AES6)
- Construct: purchased John Innes Enterprises Ltd. (John Innes Centre, UK)
- Sequence (P0AES4 whole entry, one chain of several): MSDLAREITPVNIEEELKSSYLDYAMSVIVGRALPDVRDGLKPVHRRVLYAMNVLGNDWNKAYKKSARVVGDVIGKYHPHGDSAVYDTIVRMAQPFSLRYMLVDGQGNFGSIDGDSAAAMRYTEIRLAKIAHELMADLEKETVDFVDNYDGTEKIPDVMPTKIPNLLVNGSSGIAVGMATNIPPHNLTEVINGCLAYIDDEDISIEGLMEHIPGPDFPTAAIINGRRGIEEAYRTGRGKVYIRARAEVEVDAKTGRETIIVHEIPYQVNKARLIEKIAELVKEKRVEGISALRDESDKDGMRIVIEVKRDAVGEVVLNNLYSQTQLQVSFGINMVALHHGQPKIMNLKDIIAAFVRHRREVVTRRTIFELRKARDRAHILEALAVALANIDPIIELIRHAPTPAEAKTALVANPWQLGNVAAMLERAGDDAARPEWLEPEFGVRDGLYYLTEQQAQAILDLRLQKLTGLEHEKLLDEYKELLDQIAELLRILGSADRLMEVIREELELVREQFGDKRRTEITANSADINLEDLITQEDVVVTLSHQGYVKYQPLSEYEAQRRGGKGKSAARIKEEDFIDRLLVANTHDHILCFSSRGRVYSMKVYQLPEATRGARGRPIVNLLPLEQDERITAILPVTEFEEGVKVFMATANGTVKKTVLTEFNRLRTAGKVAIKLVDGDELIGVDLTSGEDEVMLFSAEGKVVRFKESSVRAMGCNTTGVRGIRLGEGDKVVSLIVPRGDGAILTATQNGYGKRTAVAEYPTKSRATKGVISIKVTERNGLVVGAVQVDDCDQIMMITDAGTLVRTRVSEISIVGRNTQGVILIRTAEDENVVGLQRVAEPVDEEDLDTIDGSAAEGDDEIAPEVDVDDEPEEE
- test-details: DNA gyrase inhibition assay (supercoiling)
- Format: biochemical
- condition-label: E. coli DNA gyrase supercoiling, visual inspection of gels; read-out: DNA Gyrase IC50 (converted)
IC50 values for the compounds below.

The following compounds have reported results that may help.
COc1ccc2nccc(-n3cc4c(n3)CCC(NC(=O)c3cc5c(cc3C(F)(F)F)SCC(=O)N5)C4)c2n1 (stereo not shown) [Example 112]
0.451 µM
COc1ccc2nccc(-n3cc4c(n3)CCC(NC(=O)c3ccc5c(c3)N(C)C(=O)CS5)C4)c2n1 (stereo not shown) [Example 69]
> 7.99 µM
COc1ccc2nccc(-n3cc4c(n3)CCC(NCc3cc5c(cc3F)SCC(=O)N5)C4)c2n1 (stereo not shown) [Example 40]
4.08 µM

Indicate the recorded IC50 value for this compound: COc1ccc2nccc(-n3cc4c(n3)CCC(NC(=O)c3nc5ccccc5[nH]3)C4)c2n1 (stereo not shown) [Example 8]
> 36.4 µM
